System: Staphylococcus aureus
experimental.details: Antibacterial activity against methicillin-resistant Staphylococcus aureus 2658 RCMB up to 20 hrs by broth microdilution assay
Assay type: functional
attribute.measured: MIC

- item.smiles: "Cc1nc(-c2ccc(-c3ccccc3)cc2)sc1-c1ccnc(NC(=N)n2cccn2)n1"
  test.result: "> 25 µg/mL"
- item.smiles: "Cc1nc(-c2ccc(-c3ccccc3)cc2)sc1-c1ccnc(-c2ccncc2)n1"
  test.result: "> 25 µg/mL"
- item.smiles: "Cc1nc(-c2ccc(-c3ccccc3)cc2)sc1-c1ccnc(NC#N)n1"
  test.result: "> 25 µg/mL"
